// data source = patent US7008905B2

Overview of recorded TRZAWM rating (Selectivity) for various compounds
Tested on: Triticum aestivum variety “Monopol”
Measurement Description: Post-emergence test, selectivity
Format: in vivo
Measurement Setup: 0.03 kg/ha, 2–4 weeks after treatment, rating 0-100 (100=death), Table 6
Enter the number alone.

CCc1cc(Oc2cccc(C(F)(F)F)c2)nc(-c2ccc(C(F)(F)F)cc2)n1; 10
Cc1cnc(-c2ccc(C(F)(F)F)cc2)nc1Oc1cccc(C(F)(F)F)c1; 15
FC(F)(F)c1ccc(-c2nccc(Oc3cccc(C(F)(F)F)c3)n2)cc1; 1

Shifting focus to the compound that follows.
Item `Cc1nc(-c2ccc(C(F)(F)F)cc2)nc(Oc2cccc(C(F)(F)F)c2)c1C` has what recorded TRZAWM rating (Selectivity)?
2
